- Test system: morningglory
- methodDescription: Test C pre-/postemergence herbicide test
- Format: in vivo, Ipomoea coccinea
- assaySetup: 62 g ai/ha; preemergence
experimentalReadout: Plant response rating (0 = no effect, 100 = complete control), Morningglory

compound: CCn1nc(C(C)(C)C)cc1C(=O)Nc1ccc(F)c(C(=O)NCCF)c1 [Compound 60]
recordedResult: 0
--
compound: CCC(=NO)c1cccc(NC(=O)c2cc(C(C)(C)C)nn2C)c1 [Compound 118]
recordedResult: 20
--
compound: CCn1nc(C(C)(C)C)cc1C(=O)Nc1cccc(C(C)=NO)c1 [Compound 108]
recordedResult: 40

Please find the next compound below.
According to the records, this compound CCn1nc(C(C)(C)C)cc1C(=O)Nc1cccc(S(=O)(=O)C(F)(F)F)c1 [Compound 134] displays Plant response rating (0 = no effect, 100 = complete control), Morningglory of 0
